Reported values of growth inhibition for individual entries
test: NCI Yeast Anticancer Drug Screen. Data for the mec2-1 strain (AID 157); conditions: S. cerevisiae mec2-1 strain, at 50.0 µM, stronger effect = higher value
Compounds without any hit were thinned out: in the full panel of roughly 79,000, 15% have a hit.
measured quantity: growth inhibition (%)

> print(dat)
                                    compound  measured.quantity  recorded.measurement
 1         O=c1/c(=C/c2ccco2)sc2nc3ccccc3n12  growth inhibition                  5.35
 2  Cc1cc(Cl)c2c(c1)C(=O)C(C)C2.[Cu+2] (stereo unspecified)  growth inhibition                 -10.2
 3  O=C(O)/C=C/C(=O)Nc1cc(Cl)cc2c1-c1c(Cl)cc(Cl)cc1C2=O  growth inhibition                  8.95
 4  CCC(C(=O)O)c1ccc(OCc2ccccc2)cc1 (stereo unspecified)  growth inhibition                     2
 5  Cc1cc(S(=O)(=O)NC(=NCC(=O)NN)NN)c(S)cc1Cl  growth inhibition                  2.65
 6                 NCCCOCCN1CCN(c2ccccc2)CC1  growth inhibition                 -27.2
 7  N#CC1=CN(Cc2ccccc2)C(c2ccccc2)C=C1 (stereo unspecified)  growth inhibition                 -2.15
 8  Nc1nc(-c2ccc(F)cc2)cc(-c2cc(-c3ccc(F)cc3)nc(N)n2)n1  growth inhibition                 -2.75
 9                       CC(C)CN(CC#N)CC(C)C  growth inhibition                 -26.9
10  O=C(NNc1c(F)c(F)c(C(F)(F)F)c(F)c1F)c1ccccc1  growth inhibition                 -19.1
11                         Cc1ccc2nc[nH]c2c1  growth inhibition                 -21.9
12                   c1ccc(CC[n+]2ccncc2)cc1  growth inhibition                   6.8
13                         O=C(O)/N=N\C(=O)O  growth inhibition                 -23.9
14  Cc1nc(C)c(N2CCN(Cc3ccccc3)CC2)c(=O)[nH]1  growth inhibition                   2.5
15                            CCCc1ccc(N)cc1  growth inhibition                 -38.4
16  CCOC(=O)CCC(NC(=O)c1ccc(Nc2nc3ccccc3nc2-c2cccs2)cc1)C(=O)OCC (stereo unspecified)  growth inhibition                   4.3
17                    O=C(c1ccc(F)cc1)C1CCC1  growth inhibition                 -22.7
18                       C/C=C/C(=O)OC1CCCC1  growth inhibition                  11.7
19  N#CC1=C(N)N(c2ccccc2)C(c2ccco2)C1(C#N)C#N (stereo unspecified)  growth inhibition                  13.3
20  CCOc1ccc(CC(=O)Nc2cc([N+](=O)[O-])ccc2NCCN(CC)CC)cc1  growth inhibition                 -10.4
21  CCC(CC)COC(=O)CC(CC(=O)OCC(CC)CC)C(=O)OCC(CC)CC  growth inhibition                 -4.85
22                      COc1ccc(CCl)c(C)c1OC  growth inhibition                  5.75
23  CC(O)CC(=O)c1ccc(O)cc1 (stereo unspecified)  growth inhibition                   -41
24     CN(C)c1ccc(/C=C(\C#N)c2cccc(Br)c2)cc1  growth inhibition                  -7.3
25  CC(=O)Nc1ccc2c(c1)C(N1CCCCC1)c1ccccc1-2 (stereo unspecified)  growth inhibition                 -17.8
26  COC(=O)c1nc(=S)[nH]c(C(=O)OC)c1C(=O)c1ccccc1  growth inhibition                 -12.9

Taken from PubChem BioAssay (NCI).
